The reported numbers originate from patent US20230357320A1.

Molecular target: ERβ LBD (Homo sapiens, UniProt Q92731)
Construct: pET28a+ vector containing ERβ LBD (residues from 261 to 500) along with an N-terminal His6-yBBr-TEV tag; His6 (N); yBBr (N); TEV cleavage site (N); made in house; host or cells: E. coli BL21(DE3) pLysS
Assay: Competition fluorescence polarization (FP) binding assay with FITC-ERL4 probe
Conditions: binding towards the ERβ LBD; read-out: EC50
Experimental: In addition to the PAMPA assay, to study the affinity of the first-generation ProLock™ stapled peptides to the Estrogen receptor p ligand-binding domain (ERβ LBD), a fluorescence polarization (FP) binding assay in competition format was used in the presence of the endogenous ERβ LBD ligand estradiol. Competition Fluorescence Polarization (FP) assay was performed on the peptides to determine their half-maximal effective concentration (EC50). […]
pEC50: −log10 of the molar value. Starred links: 1 amine or outer side, 2 acyl side, 3 side chain; linkers in the order of their positions; H or OH if unused. Positions of bridges follow the written chain, without caps; N, C: chain ends. Non-standard residues stand in square brackets, D forms with d. Residues, ends and D or L forms follow the SMILES beside them. X1 = O=C([C@]1(CC=[*:3])CCCN1[*:1])[*:2]; S5 = C=CCCC[C@](C)(N)C(=O)O
VALUE TYPE: pEC50

COMPOUND	RESULT NUMBER
CNC(=O)[C@H](Cc1ccc(O)cc1)NC(=O)[C@H](CC(C)C)NC(=O)[C@H](CC(C)C)NC(=O)[C@H](Cc1c[nH]cn1)NC(=O)[C@H](CCCNC(=N)N)NC(=O)[C@]1(C)CCCC=CC[C@]2(CCCN2C(C)=O)C(=O)N[C@@H](CC(C)C)C(=O)N[C@@H](CC(C)C)C(=O)N1 [PLL4-2] (Ac-[X1]LL[S5]RHLLY-NHMe; staple 1-4)	6.40
CNC(=O)[C@H](Cc1ccc(O)cc1)NC(=O)[C@@H](NC(=O)[C@H](CC(C)C)NC(=O)[C@H](CC(C)C)NC(=O)[C@H](CC(N)=O)NC(=O)[C@]1(C)CCCC=CC[C@]2(CCCN2C(C)=O)C(=O)N[C@@H](CCCCN)C(=O)N[C@@H](CC(C)C)C(=O)N1)[C@@H](C)O [PLL4-5] (Ac-[X1]KL[S5]NLLTY-NHMe; staple 1-4)	5.52
CC[C@H](C)[C@@H]1NC(=O)[C@]2(CC=CCCC[C@@](C)(C(=O)N[C@@H](CCCNC(=N)N)C(=O)N[C@@H](CC(C)C)C(=O)N[C@@H](CC(C)C)C(=O)N[C@@H](CCC(N)=O)C(=O)N[C@@H](Cc3ccc(O)cc3)C(=O)NC)NC(=O)[C@H](CC(C)C)NC1=O)CCCN2C(C)=O [PLL4-1] (Ac-[X1]IL[S5]RLLQY-NHMe; staple 1-4)	6.70
CNC(=O)[C@H](CC(=O)O)NC(=O)[C@H](CC(C)C)NC(=O)[C@H](CC(C)C)NC(=O)[C@H](Cc1ccc(O)cc1)NC(=O)[C@]1(C)CCCC=CC[C@]2(CCCN2C(C)=O)C(=O)N[C@@H](CC(C)C)C(=O)N[C@@H](CC(C)C)C(=O)N1 [PLL4-10, Ac-PL3-Leu-Leu-S5-Tyr-Leu-Leu-Asp-NHMe] (Ac-[X1]LL[S5]YLLD-NHMe; staple 1-4)	5.82
